tested on: HS 578T breast; experiment: NCI tumour cell line growth inhibition, 48 h
Param threshold (40 µM) applies to TGI; output met when value >= threshold, not met when value < threshold.

Check if TGI >= 40 µM (inclusive). Item: COC(=O)C1(SC)C2CCC3C2CCC31 (stereo not drawn)
met

Check if TGI >= 40 µM (inclusive). Item: C(#CP(c1ccccc1)c1ccccc1)P(C#CP(c1ccccc1)c1ccccc1)c1ccccc1
met

Check if TGI >= 40 µM (inclusive). Item: CC(=O)OCC1OC(n2c(S)c(C#N)c(-c3ccccc3)c(C#N)c2=O)C(OC(C)=O)C(OC(C)=O)C1OC(C)=O (stereo not drawn)
met

Check if TGI >= 40 µM (inclusive). Item: C#CC(O)/C=C/CCCCCCC#CC/C=C\CC#CCCCCCCCCC(O)C#C (stereo not drawn)
not met

Check if TGI >= 40 µM (inclusive). Item: CC(=O)OC1[C@H](OC(C)=O)C2=C(C)[C@@H](OC(C)=O)C[C@@]2(C(C)(C)O)[C@@H](OC(C)=O)[C@H]2[C@@]1(C)[C@@H](OC(C)=O)CC(OC(C)=O)[C@]21CO1 (stereo partly drawn)
met

Check if TGI >= 40 µM (inclusive). Item: O=C(SCc1cccc2ccccc12)c1ccc(Cl)cc1
met

Check if TGI >= 40 µM (inclusive). Item: COc1cc2c(/C=C3/C(=O)Nc4ccc(Cl)cc43)c(Cl)[nH]c2cc1C
not met

Check if TGI >= 40 µM (inclusive). Item: Cn1cc(S(=O)(=O)NC(=O)Nc2ccc(Cl)cc2)c(=O)c2ccc(F)cc21
met

Check if TGI >= 40 µM (inclusive). Item: CCOc1ccc2c(c1)c(CC(=O)O)cn2C
met

Check if TGI >= 40 µM (inclusive). Item: C/C(=N\NC(=S)N1CCCCCC1)c1cccc2cccnc12
met

Check if TGI >= 40 µM (inclusive). Item: OC1(c2ccc(Cl)cc2)c2ccccc2-c2nc3ccccc3n21 (stereo not drawn)
met

Check if TGI >= 40 µM (inclusive). Item: CC(C)c1ccccc1SCc1cc(=O)cc(CSc2ccccc2C(C)C)o1
not met

Check if TGI >= 40 µM (inclusive). Item: COCCOCCOCc1n(Cc2ccc3ccccc3n2)c2ccccc2[n+]1Cc1ccc2ccccc2n1
not met

Check if TGI >= 40 µM (inclusive). Item: COc1ccc(CCN2CCC(CN(C)Cc3cnn(-c4ccccc4)c3)CC2)cc1
not met

Check if TGI >= 40 µM (inclusive). Item: CCOC(=O)/C=C(\C(=O)OCC)n1cc(C)c(=O)n(Cc2cnnn2COCCOC(C)=O)c1=O
met

Check if TGI >= 40 µM (inclusive). Item: O=[N+]([O-])c1cc2no[n+]([O-])c2cc1N1CCCCC1
met

Check if TGI >= 40 µM (inclusive). Item: CN(CCCCCl)P(=O)(OCc1ccc([N+](=O)[O-])o1)OCC1OC(n2cnc([N+](=O)[O-])c2N)C(O)C1O (stereo not drawn)
met

Check if TGI >= 40 µM (inclusive). Item: O=C1CSC(c2ccc(Cl)cc2Cl)N1c1ccc(Oc2ccc(Cl)cc2)c(Cl)c1 (stereo not drawn)
met

Check if TGI >= 40 µM (inclusive). Item: COc1c(N2CCN(CN3C(=O)C(=O)c4cc(Cl)ccc43)C(C)C2)c(F)cc2c(=O)c(C(=O)O)cn(C3CC3)c12 (stereo not drawn)
met

Check if TGI >= 40 µM (inclusive). Item: CN(CCNC(=O)c1c[nH]c2c1Cc1ccccc1-2)CCNC(=O)c1c[nH]c2c1Cc1ccccc1-2
met

Check if TGI >= 40 µM (inclusive). Item: COc1ccc(-c2c(-c3ccccc3)c(C)nc3nc(SC)nc(SC)c23)cc1OC
met

Check if TGI >= 40 µM (inclusive). Item: CC1OC(CC(=O)O)CC2=C1C(=O)c1c(O)cccc1C2=O (stereo not drawn)
not met

Check if TGI >= 40 µM (inclusive). Item: CC1SC2(CCCCC2)N(NC(=O)c2[nH]c3ccc(Br)cc3c2-c2ccccc2)C1=O (stereo not drawn)
met

Check if TGI >= 40 µM (inclusive). Item: COc1cc2c(/C=C3/C(=O)N(C)c4ccc(O)cc43)c(Cl)[nH]c2cc1C
not met

Check if TGI >= 40 µM (inclusive). Item: Cc1nc2sc(C(=O)c3ccc(Cl)cc3)c(N)c2c(-c2ccccc2Cl)c1C(=O)Nc1ccccc1
met

Check if TGI >= 40 µM (inclusive). Item: CN(CCC(=O)/C(=C\c1ccccc1)c1ccc(Cl)cc1)Cc1ccccc1
met

Check if TGI >= 40 µM (inclusive). Item: CC1OC2OC3C(OCC(O)C3O)OC(=O)[C@]34CCC(C)(C)CC3C3=CCC5[C@@]6(C)C[C@H](O)[C@H](OC7OC(CO)C(O)C(O)C7OC7OCC(OC(=O)CC(C)(O)CC(=O)OC1C(O)C2O)C(O)C7O)[C@@](C)(CO)C6CC[C@@]5(C)[C@]3(C)CC4 (stereo partly drawn)
not met

Check if TGI >= 40 µM (inclusive). Item: COC(=O)C(C(=O)OC)C(Br)C(Br)C(Br)c1ccccc1 (stereo not drawn)
met

Check if TGI >= 40 µM (inclusive). Item: CC1=CP(=O)(c2c(C(C)C)cc(C(C)C)cc2C(C)C)CCC1Cl (stereo not drawn)
met

Check if TGI >= 40 µM (inclusive). Item: CN1CCN(c2nc(-c3csc(-c4cccs4)n3)cc3ccccc23)CC1
not met

Check if TGI >= 40 µM (inclusive). Item: COC(=O)Nc1nc2ccc(S(=O)(=O)N3CCOCC3)cc2[nH]1
met

Check if TGI >= 40 µM (inclusive). Item: CC(=O)OCC1OC(n2c(Br)nc3c2c(=O)n(C)c(=O)n3C)C(OC(C)=O)C1OC(C)=O (stereo not drawn)
met

Check if TGI >= 40 µM (inclusive). Item: O=c1[nH]c(NCc2ccc(Cl)cc2)nc2nc[nH]c12
met

Check if TGI >= 40 µM (inclusive). Item: C/C(=N\O)c1cccc[n+]1Cc1ccccc1
met

* * *

tested on: MDA-N; experiment: NCI tumour cell line growth inhibition, 48 h
Measured Parameter: TGI

Report TGI, nothing else, for this molecule: C(=Nc1ccc(-c2nc3ccccc3s2)cc1)c1ccc[nH]1
33.6 µM

Report TGI, nothing else, for this molecule: C/C(=N\O)c1cccc[n+]1Cc1ccccc1
> 100 µM

Report TGI, nothing else, for this molecule: C[C@@H]1CC(=O)C[C@@H]2CC[C@H]3[C@@H]4CC[C@H](OC(=O)c5cccc6cc7ccccc7nc56)[C@H]4CC[C@@H]3[C@H]21
26.3 µM

Report TGI, nothing else, for this molecule: CCC(C)C1=C(O)[N+]2([O-])Oc3ccc(-c4c(O)c(O)c(-c5ccc(OC(C)=O)cc5)c(OC(C)=O)c4OC(C)=O)cc3OC2(C(C)CC)C(=O)N1O (centres undefined)
> 50 µM

Report TGI, nothing else, for this molecule: COc1cc2c(cc1OC)C(=O)/C(=C/c1cc(C)cc(C)c1)C2
0.0621 µM

Report TGI, nothing else, for this molecule: COC1(CC[C@@H](C)COC2OC(CO)C(O)C(O)C2O)O[C@H]2C[C@H]3[C@@H]4CC=C5C[C@@H](OC6OC(CO)C(O)C(OC7OC(CO)C(O)C(O)C7O)C6OC6OC(C)C(O)C(O)C6O)CC[C@]5(C)[C@H]4CC[C@]3(C)[C@H]2[C@@H]1C (some centres undefined)
23.1 µM

Report TGI, nothing else, for this molecule: CC(C)=CC(=O)c1[nH]c2ccccc2c1CC(=O)NCCc1cncn1C
> 100 µM

Report TGI, nothing else, for this molecule: COC1CC(N)C(O)C(C)O1 (centres undefined)
> 100 µM

Report TGI, nothing else, for this molecule: CC(=O)Nc1n[n+]([O-])c2cc(C)ccc2[n+]1[O-]
14.9 µM

* * *

system: RXF 393 renal; assay: NCI tumour cell line growth inhibition, 48 h
Measured Parameter: GI50

Report GI50, nothing else, for this compound: Cc1nc2ccccc2nc1N=Nc1ccccc1
23400 nM

Report GI50, nothing else, for this compound: COc1cc2c(c(OC)c1OC)-c1ccc(N=NC(N)=S)c(=O)cc1[C@@H](NC(C)=O)CC2
937 nM

Report GI50, nothing else, for this compound: CN1CCN(c2nc(-c3csc(-c4cccs4)n3)cc3ccccc23)CC1
1780 nM

Report GI50, nothing else, for this compound: CCCCCCNCc1cc(C(C)(C)C)cc(CNCCCCCC)c1O
1620 nM

Report GI50, nothing else, for this compound: Cc1ccc(-n2nnnc2-c2cnc(N3CCOCC3)nc2-c2cccc(C(F)(F)F)c2)cc1
1990 nM

* * *

tested on: SNB-19 CNS; assay: NCI tumour cell line growth inhibition, 48 h
Measured Parameter: GI50

Report GI50, nothing else, for this molecule: CCCCOC1OC(COC(=O)C(C)C)C(OC(=O)C(C)C)C(O)C1OC1OC(C)C(OC(=O)CCC)C(OC(=O)C(C)C)C1O (centres undefined)
16.5 µM

Report GI50, nothing else, for this molecule: COc1cc(Cl)cc(-c2nn(-c3cccc(NC(=O)Nc4ccc(Cl)c(Cl)c4)c3)cc2-c2ccncc2)c1
3.51 µM

Report GI50, nothing else, for this molecule: Nc1nc(N)c2nc3c(nc2n1)CCCCCCCCCC3
6.43 µM

Report GI50, nothing else, for this molecule: O=C1CC/C(=C/COc2cc(=O)oc3ccccc23)O1
10.9 µM

Report GI50, nothing else, for this molecule: COCCOCCOCc1n(Cc2ccc3ccccc3n2)c2ccccc2[n+]1Cc1ccc2ccccc2n1
0.444 µM

Report GI50, nothing else, for this molecule: O=[N+]([O-])c1cc([N+](=O)[O-])c(Cl)cc1Cl
1.95 µM

Report GI50, nothing else, for this molecule: CN(C)c1ccc(/C=N/S(=O)(=O)c2ccc(-n3c(-c4ccccc4)nc4c(Br)cc(Br)cc4c3=O)cc2)cc1
51.2 µM

Report GI50, nothing else, for this molecule: COc1cc2c(c(OC)c1OC)-c1ccc(N=NC(N)=S)c(=O)cc1[C@@H](NC(C)=O)CC2
0.578 µM

Report GI50, nothing else, for this molecule: O=C1/C(=C/c2ccc(O)cc2)COc2ccc(O)c(O)c21
3.74 µM

Report GI50, nothing else, for this molecule: O=C1N(Cc2ccccc2Cl)c2ccccc2C12NN=C(c1cccc(Cl)c1)S2 (centres undefined)
1.75 µM

Report GI50, nothing else, for this molecule: O=Cc1ccc(-c2ccc(-c3nc4ccccc4s3)cc2)s1
> 100 µM

Report GI50, nothing else, for this molecule: Cc1nc2cc(Nc3nc(Nc4ccc(F)cc4)nc(N4CCOCC4)n3)ccc2n1Cc1ccccc1
5.72 µM

Report GI50, nothing else, for this molecule: NC(=O)c1sc(-n2cnc3cc(C(F)(F)F)ccc32)cc1OCc1ccccc1Br
> 19.1 µM

Report GI50, nothing else, for this molecule: CCCCCCCCCCCCCC[n+]1ccc(C)cc1
1.46 µM
